We begin with Ki values for UniProtKB P00742, as collected from the published literature.
Observable: Ki (nM)

Below, each entry is followed by its recorded Ki result.
Cc1ccc2cc(C(=O)NC3CCN(C(C)C)CC3)n(Cc3cc(-c4ccc(Cl)s4)on3)c2c1 :: 18
CCOc1ccc(CNc2ccc(C(=N)N)cc2)cc1OCC :: 39000
N=C(N)c1ccc2[nH]c(-c3cc(CC(=O)O)cc(-c4cccc([N+](=O)[O-])c4)c3O)nc2c1 :: 320
Cc1cc(C(=O)Nc2ccc(-c3ccccc3S(N)(=O)=O)cc2)n(-c2cccc(O)c2)n1 :: 164
CS(=O)(=O)c1ccccc1-c1ccc(NC(=O)c2cc(C(F)(F)F)nn2-c2ccccc2CN)c(F)c1 :: 0.46
N=C(N)c1ccc2[nH]cc(CC(Cc3ccccc3)C(=O)Nc3ccc(-n4cnc5ccccc54)cc3)c2c1 (configuration not stated) :: 45

I: O=C(Cn1ccnc(NCC(F)(F)c2cccc[n+]2[O-])c1=O)NCc1cc(Cl)ccc1-n1cnnn1
II: C[C@@H](C(=O)N1CCOCC1)N1CC[C@H](NS(=O)(=O)c2ccc(-c3ccc(Cl)s3)nc2)C1=O
III: C[C@@H](C(=O)N1CCOCC1)N1CC[C@H](NS(=O)(=O)c2ccc(-c3ccc(Cl)s3)o2)C1=O
IV: CN1CC(C)(COc2ccc(C(=N)N)cc2)Oc2cc(N(CC(=O)O)Cc3cccc(F)c3)ccc21 (configuration not stated)
V: CC(=N)N1CCC(Oc2ccc3nc(C(C)C)n(Cc4ccc5ccc(C(=N)N)cc5c4)c3c2)CC1
# desc sort on Ki across 5 molecules Thanks in advance for listing the labels in the requested order.
IV, III, II, I, V
